# System tested: HLA-B*4001 (human)
# Protocol details: competition with labeled probe peptide, purified HLA class I
Property: pIC50
// returns pIC50 (minus log10 of molar concentration), number only

Note pIC50 for the substance shown: SEQ ID NO 717, 7-mer of MAGE2 at position 234 (printed as WEELSML) (peptide)
4.98

----------
# System tested: HLA-B*4403 (human)
# Protocol details: competition with labeled probe peptide, purified HLA class I
Property: IC50 (µM)
Return type: number; implicit unit µM.

Note IC50 for the substance shown: SEQ ID NO 717, 7-mer of MAGE2 at position 234 (printed as WEELSML) (peptide)
2.01
